- measurement_protocol: in vitro
- details: PAMPA
Outcome: yes (1) for Papp of at least 10 ×10⁻⁶ cm/s; no (0) for anything lower.

>  <compound>
O=C(N[C@@H]1CCN(c2c(C(=O)N3CC4(COC4)C3)cc(Br)cc2C(F)(F)F)C1)c1cc(=O)[nH]c2c(F)cccc12 [Compound 73]

>  <label_value>
yes (1)

$$$$
>  <compound>
COCCN(C)C(=O)c1cc(Br)cc(C(F)(F)F)c1N1CC[C@@H](NC(=O)c2cc(=O)[nH]c3c(F)cccc23)C1 [Compound 72]

>  <label_value>
yes (1)

$$$$
>  <compound>
C[C@@H]1C[C@@H](NC(=O)c2cc(=O)[nH]c3c(F)c(F)ccc23)CN1c1c(C(=O)N2CCOCC2)cc(C#N)cc1C(F)(F)F [Compound 31]

>  <label_value>
yes (1)

$$$$
>  <compound>
Cc1cc(C(=O)N[C@@H]2CCN(c3c(C(=O)NCC(C)C)cc(C#N)cc3C(F)(F)F)C2)cc(=O)[nH]1 [Compound 29]

>  <label_value>
no (0)

$$$$
>  <compound>
Cc1cc(C(=O)N2CCOCC2)c(N2CC[C@@H](NC(=O)c3cc(C)[nH]c(=O)c3F)C2)c(C2CC2)c1 [Compound 60]

>  <label_value>
no (0)

$$$$
>  <compound>
CN1CCN(C(=O)c2cc(C#N)cc(C3CC3)c2N2CC[C@@H](NC(=O)c3cc(=O)[nH]c4c(F)cccc34)C2)CC1 [Compound 41]

>  <label_value>
no (0)

$$$$
>  <compound>
CN1CCN(C(=O)c2cc(Cl)cc(C(F)(F)F)c2N2CC[C@@H](NC(=O)c3cc(=O)[nH]c4c(F)cccc34)C2)CC1 [Compound 37]

>  <label_value>
no (0)

$$$$
>  <compound>
O=C(N[C@H]1CCN(c2c(C(=O)N3CCOCC3)cc(Br)cc2C(F)(F)F)C1)c1cc(=O)[nH]c2c(F)cccc12 [Compound 47]

>  <label_value>
yes (1)

$$$$
>  <compound>
N#Cc1cc(C(=O)N2C[C@H]3COC[C@H]3C2)c(N2CC[C@@H](NC(=O)c3cc(=O)[nH]c4c(F)cccc34)C2)c(C(F)(F)F)c1 [Compound 18]

>  <label_value>
no (0)

$$$$
>  <compound>
Cc1cc(C(=O)N[C@@H]2CCN(c3c(C(=O)N4CCOCC4)cc(Br)cc3C(F)(F)F)C2)c(F)c(=O)[nH]1 [Compound 3]

>  <label_value>
no (0)

$$$$
>  <compound>
O=C(N[C@@H]1CCN(c2c(C(=O)N3CCOCC3)cc(Cl)cc2C(F)(F)F)C1)c1cc(=O)[nH]c2c(F)cccc12 [Compound 36]

>  <label_value>
yes (1)

$$$$
>  <compound>
O=C(N[C@@H]1CCN(c2c(C(=O)N3CCOCC3)cc(Br)cc2C(F)(F)F)C1)c1cc(=O)[nH]c2ccccc12 [Compound 56]

>  <label_value>
yes (1)

$$$$
>  <compound>
N#Cc1cc(C(=O)N2CCOCC2)c(N2CC[C@@H](NC(=O)c3c(F)c(=O)[nH]c4c(F)cccc34)C2)c(C(F)F)c1 [Compound 39]

>  <label_value>
no (0)

$$$$
>  <compound>
N#Cc1cc(C(=O)N2CCOCC2)c(N2C[C@H](NC(=O)c3cc(=O)[nH]c4c(F)cc(F)cc34)CC2=O)c(C(F)(F)F)c1 [Compound 33]

>  <label_value>
no (0)

$$$$
>  <compound>
O=C(N[C@@H]1CCN(c2c(C(=O)N3CCC(F)(F)C3)cc(Br)cc2C(F)(F)F)C1)c1cc(=O)[nH]c2c(F)cccc12 [Compound 69]

>  <label_value>
yes (1)

$$$$
>  <compound>
O=C(N[C@@H]1CCN(c2c(OC(F)(F)F)cc(Br)cc2C(=O)N2CCOCC2)C1)c1cc(=O)[nH]c2c(F)cccc12 [Compound 42]

>  <label_value>
yes (1)

$$$$
>  <compound>
COc1cccc2[nH]c(=O)cc(C(=O)N[C@@H]3CCN(c4c(Cl)cc(C)cc4C(=O)N4CCOCC4)C3)c12 [Compound 85]

>  <label_value>
no (0)

$$$$
>  <compound>
O=C(N[C@@H]1CCN(c2c(C(=O)N3CC(F)(F)C3)cc(Br)cc2C(F)(F)F)C1)c1cc(=O)[nH]c2c(F)cccc12 [Compound 70]

>  <label_value>
yes (1)

$$$$

Hello, the source for this data is patent US20240158368A1, in case you need it.
